Sourced from patent US20260242735A1

Molecular target: human CD33 variant Y49I (human, UniProt P20138 18-364)
Sequence (P20138 18-364 Y49I limits assumed): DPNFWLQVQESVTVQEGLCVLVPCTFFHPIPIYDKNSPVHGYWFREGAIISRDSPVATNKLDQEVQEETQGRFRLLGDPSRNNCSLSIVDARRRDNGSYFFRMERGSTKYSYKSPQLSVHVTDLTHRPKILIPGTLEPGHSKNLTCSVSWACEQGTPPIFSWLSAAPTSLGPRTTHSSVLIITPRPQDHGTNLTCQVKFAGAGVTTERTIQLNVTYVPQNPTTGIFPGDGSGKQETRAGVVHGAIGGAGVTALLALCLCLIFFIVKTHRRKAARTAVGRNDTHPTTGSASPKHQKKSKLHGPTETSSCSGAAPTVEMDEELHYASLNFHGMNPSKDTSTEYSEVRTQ
Test: flow cytometry, IgG on cells expressing the mutant
# reported Mean % WT Binding; entries follow

Before answering, review these 2 worked examples.
INSERT INTO measurements (binder, measure, reportedvalue) VALUES
  ('Refmab #3 (antibody, human IgG1, V domains shown, Tested in IgG format; human IgG1 Fc silent (PG-LALA)) VH: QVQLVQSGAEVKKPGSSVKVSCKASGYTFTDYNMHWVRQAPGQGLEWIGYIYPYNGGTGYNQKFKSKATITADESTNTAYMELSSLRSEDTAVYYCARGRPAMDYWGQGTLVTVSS VL: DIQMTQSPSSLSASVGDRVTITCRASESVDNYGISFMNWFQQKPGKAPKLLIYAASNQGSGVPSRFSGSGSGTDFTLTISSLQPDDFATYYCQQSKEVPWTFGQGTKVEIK', 'Mean % WT Binding', '109 % of WT'),
  ('Refmab #2 (antibody, human IgG1, V domains shown, Tested in IgG format; human IgG1 Fc silent (PG-LALA)) VH: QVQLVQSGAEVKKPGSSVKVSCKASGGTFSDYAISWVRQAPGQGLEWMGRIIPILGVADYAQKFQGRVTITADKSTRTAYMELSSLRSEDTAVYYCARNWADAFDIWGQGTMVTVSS VL: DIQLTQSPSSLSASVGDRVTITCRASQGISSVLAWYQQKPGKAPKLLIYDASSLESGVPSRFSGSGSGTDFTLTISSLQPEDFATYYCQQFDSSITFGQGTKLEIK', 'Mean % WT Binding', '94.3 % of WT');

[Q] Data request, read-out Mean % WT Binding, for Refmab #4 (antibody, human IgG1, V domains shown, Tested in IgG format; human IgG1 Fc silent (PG-LALA)) VH: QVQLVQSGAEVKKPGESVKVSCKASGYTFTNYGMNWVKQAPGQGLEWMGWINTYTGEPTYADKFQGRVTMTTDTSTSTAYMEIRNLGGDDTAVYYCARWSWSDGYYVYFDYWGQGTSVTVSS VL: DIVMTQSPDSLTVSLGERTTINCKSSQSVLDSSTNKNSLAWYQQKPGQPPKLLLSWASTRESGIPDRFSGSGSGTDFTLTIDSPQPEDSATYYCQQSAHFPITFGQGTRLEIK
[A] 94 % of WT

[Q] Also, Refmab #1 (antibody, human IgG1, V domains shown, Tested in IgG format; human IgG1 (Absolute Antibody hP67.6, Cat. No. Ab00283-10.0); also called hP67.6) VH: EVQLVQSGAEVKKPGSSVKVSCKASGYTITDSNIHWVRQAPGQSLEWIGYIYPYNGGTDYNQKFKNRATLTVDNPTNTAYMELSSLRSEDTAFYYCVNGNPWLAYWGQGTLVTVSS VL: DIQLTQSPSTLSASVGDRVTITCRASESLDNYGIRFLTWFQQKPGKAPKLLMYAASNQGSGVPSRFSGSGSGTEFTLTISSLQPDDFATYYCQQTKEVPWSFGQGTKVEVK please.
[A] 109 % of WT
